Biological target: Protein deacetylase HDAC6 (Homo sapiens, UniProt Q9UBN7)
Sequence (Q9UBN7 whole entry): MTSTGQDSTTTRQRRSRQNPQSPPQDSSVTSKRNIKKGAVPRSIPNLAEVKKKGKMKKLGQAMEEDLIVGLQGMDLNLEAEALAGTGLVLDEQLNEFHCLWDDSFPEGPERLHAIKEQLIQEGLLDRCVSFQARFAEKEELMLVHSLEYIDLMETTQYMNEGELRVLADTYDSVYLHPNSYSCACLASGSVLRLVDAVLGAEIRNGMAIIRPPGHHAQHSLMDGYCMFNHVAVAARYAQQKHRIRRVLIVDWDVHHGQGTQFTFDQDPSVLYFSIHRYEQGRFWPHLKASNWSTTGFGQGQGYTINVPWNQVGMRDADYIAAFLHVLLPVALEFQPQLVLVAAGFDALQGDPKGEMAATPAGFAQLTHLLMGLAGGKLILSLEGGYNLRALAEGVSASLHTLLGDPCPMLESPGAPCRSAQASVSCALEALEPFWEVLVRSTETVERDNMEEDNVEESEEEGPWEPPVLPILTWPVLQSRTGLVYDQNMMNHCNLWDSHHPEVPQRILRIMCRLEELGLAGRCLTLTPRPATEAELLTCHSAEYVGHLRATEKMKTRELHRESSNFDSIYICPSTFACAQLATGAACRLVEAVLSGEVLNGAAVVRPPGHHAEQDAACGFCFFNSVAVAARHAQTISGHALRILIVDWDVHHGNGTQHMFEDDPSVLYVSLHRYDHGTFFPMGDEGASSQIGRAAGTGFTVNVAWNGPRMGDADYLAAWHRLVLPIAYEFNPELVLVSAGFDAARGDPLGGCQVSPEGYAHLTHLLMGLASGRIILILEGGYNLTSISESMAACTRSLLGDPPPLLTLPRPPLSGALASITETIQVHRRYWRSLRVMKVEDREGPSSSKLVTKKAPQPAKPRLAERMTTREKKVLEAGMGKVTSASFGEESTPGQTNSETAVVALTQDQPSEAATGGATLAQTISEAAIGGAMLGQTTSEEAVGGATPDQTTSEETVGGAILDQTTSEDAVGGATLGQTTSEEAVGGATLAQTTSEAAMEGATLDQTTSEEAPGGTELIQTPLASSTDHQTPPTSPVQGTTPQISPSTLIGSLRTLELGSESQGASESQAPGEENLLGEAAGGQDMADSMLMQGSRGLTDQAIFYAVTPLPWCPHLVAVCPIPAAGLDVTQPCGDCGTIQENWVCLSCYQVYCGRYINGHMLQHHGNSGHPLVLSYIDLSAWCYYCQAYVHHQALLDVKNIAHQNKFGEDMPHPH
Please find below log10(Kd) measurements for Protein deacetylase HDAC6 (Homo sapiens, UniProt Q9UBN7), combined from several publications.
Annotation: log10 of Kd, µM basis.

O=C(CCCCCCNC(=O)c1ccc(NCc2cn(CCCNC(=S)Nc3ccc(-c4c5ccc(=O)cc-5oc5ccccc45)c(C(=O)O)c3)nn2)cc1)NO    -2.34

[Q] State log10(Kd) on Protein deacetylase HDAC6 (Homo sapiens, UniProt Q9UBN7). Entry: `O=C(O)CNC(=O)c1ccc(S(=O)(=O)N2CC=C(c3ccccc3)CC2)cc1`
[A] 2.53

[Q] System Protein deacetylase HDAC6 (Homo sapiens, UniProt Q9UBN7). Read-out log10(Kd). Item `O=C(O)CNC(=O)c1ccc(S(=O)(=O)N2CCC3(CC2)OCc2ccccc23)cc1` . Report value.
[A] 2.64

[Q] Find log10(Kd) for `O=C(O)CNC(=O)c1ccc(S(=O)(=O)N2CCC(c3ccccc3)CC2)cc1Cl` on Protein deacetylase HDAC6 (Homo sapiens, UniProt Q9UBN7) and write it down.
[A] 2.18

[Q] Given `COc1ccc(Cn2ccc3ccc(C(=O)NO)cc32)cc1C(=O)NCCCCNc1ccc(S(=O)(=O)N(C)C)c2nonc12` , report its log10(Kd) on Protein deacetylase HDAC6 (Homo sapiens, UniProt Q9UBN7).
[A] 2.14

[Q] // fetch log10(Kd); item: `CC(=O)N1c2ccc(-c3ccc(NC(=O)CCCCCCC(=O)NO)cc3)cc2[C@H](NC(=O)OC(C)C)C[C@@H]1C` ; system: Protein deacetylase HDAC6 (Homo sapiens, UniProt Q9UBN7)
[A] -0.63
